B1: LINE1-mini (parent)
chain: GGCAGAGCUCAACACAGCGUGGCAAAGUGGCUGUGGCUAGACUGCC

- Variants of: B1
- TEST DETAILS: self-cleavage, relative activity (ratio to wild type); higher = more cleavage; in vitro, sequencing; the parent is a self-cleaving ribozyme
ATTRIBUTE MEASURED: self-cleavage
Numbers only.

Please state, for each entry, its recorded self-cleavage.
1. A14C A25G
2. C31G U38G
3. U38G C46G
4. G7A U43C
5. A12C G21C

Result:
1. 0.07
2. 0.03
3. 0.02
4. 0.25
5. 0.03

Please state, for each entry, its recorded self-cleavage.
1. C13U U34G
2. A26C G30A
3. G19A U20G
4. G21C U34G
5. A11U C31G

Result:
[0.05, 1.12, 0.59, 0.24, 0.03]

Please state, for each entry, its recorded self-cleavage.
1. G22C A26C
2. C3A G44U
3. G5C G36C
4. A11U A14U
5. A11G C37A

Result:
[2.46, 2.11, 0.06, 0.08, 0.02]
